system: T-lymphocyte; test: Inhibition of T-lymphocyte proliferation; format: cell-based; details: human mononuclear cells, PHA 1 μg/ml, [3H]thymidine, 3rd and 4th day, read-out: Test Procedure D: IC50, inhibition of T-lymphocyte proliferation
VALUE TYPE: IC50 (nM)
Report the value in nM with no unit label.

[
  {
    "SMI": "Cc1cc(C(=O)N[C@@H]2CNCCC[C@H]2OC(=O)c2ccc(C(=O)c3c(O)ccc4c3OCCO4)cc2)cc(C)c1O",
    "MEASUREMENT UNIT": "nM",
    "IC50": 300
  }
]

Next up:
Name the recorded IC50 of `Cc1cc(C(=O)N[C@@H]2CNCCC[C@H]2OC(=O)c2ccc(C(=O)c3c(O)ccc(F)c3F)cc2)cc(C)c1O` , assay system T-lymphocyte.
1000
